Quick reference for protein stability index among some variants
B1: SNAP91 (parent)
chain: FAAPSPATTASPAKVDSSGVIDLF

- Variants of: B1
- protocol_details: protein stability index of a GFP-peptide fusion (GPS, HEK-293T) (PSI 1-6); higher = more stable;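 also: lentivirally expressed fusions sorted by FACS into six bins by GFP to DsRed ratio, PSI derived from sequencing read proportions per bin multiplied by bin number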
- reported_conditions: c terminus: a fixed tail appended
Provide a numeric answer; units are not to be included.

Take a look at these entries with their results.
L23D; 4.69
T8L; 2.27
P6L; 1.49
S18L; 2.23
P6G; 2.31

Look up protein stability index for this variant: V20E
3.42

What value of protein stability index has been reported for the following variant? A10G
1.64

Recorded protein stability index of K14E , please.
2.81

Fill in: protein stability index of S5R is ___
2.1

Recorded protein stability index for P6S , please?
2.65

I'd like to know its protein stability index. The variant in question is P6D
3.01

What value of measured protein stability index is listed for A7F ?
2.65

protein stability index lookup needed for S11I , thanks.
2.3

Which protein stability index value belongs to S11D ?
2.73

All values here come from the supplement of paper PMC10567573.
